Numbers sourced from PubChem BioAssay.

experimental.details: differential killing of epithelial or mesenchymal cells, primary screen, imaging, PC-3E GFP, TEM4-18 mCherry, co-culture (AID 1345086);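 also: cells exposed to compound for 72 h before imaging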
applied.conditions: imaging cell counts, measured here: mesenchymal TEM4-18 mCherry cell survival, at 1 µM
Please provide measured normalised cell number for the entries that follow.
Give bare numbers.

Known results for compounds:
COC(=O)NC1[C@@H](O)C(O)C(CO)O[C@H]1Sc1ccccc1 (stereo partly drawn); 0.96
CCC(C)[C@H]1O[C@]2(CC[C@@H]1C)C[C@@H]1C[C@@H](C/C=C(\C)[C@@H](OC3C[C@H](OC)C(O[C@H]4C[C@H](OC)[C@@H](O)[C@H](C)O4)[C@H](C)O3)[C@@H](C)/C=C/C=C3\COC4[C@H](O)C(C)=C[C@@H](C(=O)O1)[C@]34O)O2 (stereo partly drawn); 0.97
COc1ccc2oc(-c3ccccc3OC)cc(=O)c2c1; 0.98
Clc1ccc2ncc(Cl)nc2c1; 1.05
CC(=O)N1CCCC1C(=O)O (stereo not drawn); 1.03

Record normalised cell number per entry; entries follow.
1. O=C(O)/C=C/C=C/c1ccccc1
2. COc1c(N2CC[C@@H](CN)C2)c(F)cc2c(=S)c(C(=O)O)cn(C3CC3)c12
3. CC(C)NC[C@H](O)COc1cccc2ccccc12
4. N#C[C@@H]1C[C@@H]2C[C@@H]2N1C(=O)[C@@H](N)C12CC3CC(CC(O)(C3)C1)C2

Outgoing:
1: 0.93; 2: 1.2; 3: 1.37; 4: 1.19

Record normalised cell number per entry; entries follow.
1. Nc1nc(Cl)nc2c1ncn2C1O[C@H](CO)[C@@H](O)[C@@H]1F (stereo partly drawn)
2. Nc1ccc(C(=O)O)c(O)c1 (tested in a mixture with another compound)
3. NC(N)=NCC1COC2(CCCCC2)O1 (stereo not drawn)
4. CO[C@@]12[C@@H]3NC3CN1C1=C(C(=O)C(N)=C(C)C1=O)[C@@H]2COC(N)=O (stereo partly drawn)

Outgoing:
1: 0.39; 2: 1.06; 3: 1.2; 4: 1.13

----------
experimental.details: differential killing of epithelial or mesenchymal cells, primary screen, imaging, PC-3E GFP, TEM4-18 mCherry, co-culture (AID 1345086);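 also: cells exposed to compound for 72 h before imaging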;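 as to red/green cell ratio (normalised): normalised mesenchymal count divided by normalised epithelial count so high means epithelial killing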
applied.conditions: imaging cell counts, at 1 µM, actives lie on both sides, counts scaled to control wells, 1 = unselective
Quick rule for you: red/green cell ratio (normalised) at 1 or higher means True, lower means False.

CC(=O)N[C@@H]1[C@@H](OC(C)C(=O)O)[C@H](O)[C@@H](CO)O[C@H]1O (stereo not given in full); False
CN1CCN(CCC=C2c3ccccc3Sc3ccc(S(=O)(=O)N(C)C)cc32)CC1; True
CC(CC(=O)N1C(=O)OC[C@H]1c1ccccc1)N1C(=S)OC[C@@H]1c1ccccc1 (stereo not given in full); False

Incoming: Determine whether this compound has red/green cell ratio (normalised) no lower than 1: COc1cc(C(=O)O)cc(C)c1C(=O)CC(C)O (stereo not given)
Outgoing: False

Incoming: Determine whether this compound has red/green cell ratio (normalised) no lower than 1: C[C@H](CCC(=O)O)[C@H]1CCC2C3C(=O)CC4CC(=O)CC[C@]4(C)C3CC(=O)[C@@]21C (stereo not given in full)
Outgoing: True

Incoming: Determine whether this compound has red/green cell ratio (normalised) no lower than 1: CC(C)CC(NC(=O)CCN)C(=O)O (stereo not given)
Outgoing: True

Incoming: Determine whether this compound has red/green cell ratio (normalised) no lower than 1: CC(=O)OCC(=O)[C@@]1(O)CCC2C3C[C@H](C)C4=CC(=O)C=CC4(C)C3[C@@H](O)CC21C (stereo not given in full)
Outgoing: True

Incoming: Determine whether this compound has red/green cell ratio (normalised) no lower than 1: C=C/C(C)=C\CC1[C@](C)(O)CC[C@H]2C(C)(C)CCC[C@]12C (stereo not given in full)
Outgoing: True
